Biological target: PTPN9 (MEG2) (Homo sapiens, UniProt P43378)
Sequence (P43378 whole entry): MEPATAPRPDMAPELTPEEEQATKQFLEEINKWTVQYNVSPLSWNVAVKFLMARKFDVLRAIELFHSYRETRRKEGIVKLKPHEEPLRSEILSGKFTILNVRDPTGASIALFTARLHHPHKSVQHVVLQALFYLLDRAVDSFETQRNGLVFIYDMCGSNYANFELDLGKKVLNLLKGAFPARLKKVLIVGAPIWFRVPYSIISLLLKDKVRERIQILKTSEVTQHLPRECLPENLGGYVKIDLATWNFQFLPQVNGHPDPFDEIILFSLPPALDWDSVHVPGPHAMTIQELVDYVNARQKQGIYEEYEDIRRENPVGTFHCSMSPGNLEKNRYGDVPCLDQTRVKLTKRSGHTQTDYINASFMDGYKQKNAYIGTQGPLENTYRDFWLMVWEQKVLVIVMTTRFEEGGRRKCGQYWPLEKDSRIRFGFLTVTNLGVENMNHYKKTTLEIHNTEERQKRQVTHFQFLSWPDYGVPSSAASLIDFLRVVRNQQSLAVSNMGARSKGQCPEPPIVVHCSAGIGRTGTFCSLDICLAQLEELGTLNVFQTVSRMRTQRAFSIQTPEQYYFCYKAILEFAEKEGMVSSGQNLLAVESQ
ATTRIBUTE_MEASURED: pIC50
pIC50 (log units): -log10 of the concentration in mol/L.

Lookup: Given N#CCc1ccc2cc(Br)c(C(F)(F)P(=O)(O)O)cc2c1 , state its recorded pIC50.
Found: 5.14

---

Molecular target: PTPN2 (TC-PTP); GST-TC-PTP catalytic domain (Homo sapiens, UniProt P17706)
Test: DiFMUP fluorescence phosphatase assay
Format: biochemical
ATTRIBUTE_MEASURED: IC50 (nM)
Value expressed in nM; do not type the unit.

Lookup: Given N#CCc1ccc2cc(Br)c(C(F)(F)P(=O)(O)O)cc2c1 , state its recorded IC50.
Found: 188

---

Biological target: PTPN2 (TC-PTP); GST-TC-PTP catalytic domain (Homo sapiens, UniProt P17706)
Sequence (P17706 1-314 limits assumed): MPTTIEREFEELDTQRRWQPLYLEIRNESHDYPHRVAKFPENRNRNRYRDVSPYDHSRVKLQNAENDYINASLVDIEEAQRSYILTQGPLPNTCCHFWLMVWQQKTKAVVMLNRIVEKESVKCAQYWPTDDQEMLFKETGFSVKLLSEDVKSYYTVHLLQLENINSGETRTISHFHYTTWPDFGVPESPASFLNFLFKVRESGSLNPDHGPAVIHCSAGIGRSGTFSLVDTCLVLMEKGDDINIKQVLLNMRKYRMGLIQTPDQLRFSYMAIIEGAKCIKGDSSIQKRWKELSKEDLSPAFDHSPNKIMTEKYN
Test: DiFMUP fluorescence phosphatase assay
Format: biochemical
Conditions: 50 mM HEPES pH 7.0, 3 mM DTT, 1 mg/mL BSA, 25 °C, DiFMUP at Km
ATTRIBUTE_MEASURED: IC50 (nM)
Value expressed in nM; do not type the unit.

Lookup: Given N#Cc1ccc2cc(Br)c(C(F)(F)P(=O)(O)O)cc2c1 [L598] , state its recorded IC50.
Found: 489

---

Target: PTPN1 (PTP1B); GST-PTP1B catalytic domain (Homo sapiens, UniProt P18031)
Sequence (P18031 1-321 limits assumed): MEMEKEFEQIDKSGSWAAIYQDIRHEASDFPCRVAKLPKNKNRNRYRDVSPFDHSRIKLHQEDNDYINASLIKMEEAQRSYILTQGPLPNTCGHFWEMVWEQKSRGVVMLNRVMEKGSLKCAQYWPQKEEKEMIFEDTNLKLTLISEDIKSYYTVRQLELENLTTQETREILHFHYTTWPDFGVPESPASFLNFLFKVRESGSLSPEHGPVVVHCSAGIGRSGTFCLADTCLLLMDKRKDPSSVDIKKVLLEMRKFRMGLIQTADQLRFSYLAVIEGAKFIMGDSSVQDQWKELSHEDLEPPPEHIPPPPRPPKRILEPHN
Test: DiFMUP fluorescence phosphatase assay
ATTRIBUTE_MEASURED: pIC50
pIC50 (log units): -log10 of the concentration in mol/L.

Lookup: Given N#CCc1ccc2cc(Br)c(C(F)(F)P(=O)(O)O)cc2c1 [KQ791] , state its recorded pIC50.
Found: 6.73
